Origin of the recorded values: patent US5985836A

molecular target: A1PI (Homo sapiens); construct: Human plasma is currently the only approved source of therapeutic AlPI; test: A1PI binding on peptide-resin column, injection of 1 mg A1PI in equilibration buffer; conditions: VIFLVR point mutations; 1 mg A1PI, 4° C.
Sequence (P01009 25-418): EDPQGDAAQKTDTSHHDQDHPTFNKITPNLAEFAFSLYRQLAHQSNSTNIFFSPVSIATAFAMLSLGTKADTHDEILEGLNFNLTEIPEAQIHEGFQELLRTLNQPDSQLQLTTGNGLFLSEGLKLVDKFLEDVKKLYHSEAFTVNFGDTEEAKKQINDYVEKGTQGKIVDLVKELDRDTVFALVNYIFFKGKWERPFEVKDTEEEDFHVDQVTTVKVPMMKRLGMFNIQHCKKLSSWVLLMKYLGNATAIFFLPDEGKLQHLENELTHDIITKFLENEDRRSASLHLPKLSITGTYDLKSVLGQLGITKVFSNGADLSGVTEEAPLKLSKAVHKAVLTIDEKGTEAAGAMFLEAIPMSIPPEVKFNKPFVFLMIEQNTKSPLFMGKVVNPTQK
Ends that are not written are not given here.
measurement.type: % of Total A1PI Eluted by Fraction (Based on Absorbance at 280 nm), Flowthrough (%)

Consider the worked cases shown below.
May I ask what % of Total A1PI Eluted by Fraction (Based on Absorbance at 280 nm), Flowthrough has been recorded for V I F L Y R: point mutation of VIFLVR, position 5 (VIFLYR) ?
56

Would you kindly share the measured % of Total A1PI Eluted by Fraction (Based on Absorbance at 280 nm), Flowthrough for R I F L V R: point mutation of VIFLVR, position 1 (RIFLVR) ?
0

Look up % of Total A1PI Eluted by Fraction (Based on Absorbance at 280 nm), Flowthrough for this substance: V I F A V R: point mutation of VIFLVR, position 4 (VIFAVR)
0

Would you kindly share the measured % of Total A1PI Eluted by Fraction (Based on Absorbance at 280 nm), Flowthrough for V R F L V R: point mutation of VIFLVR, position 2 (VRFLVR) ?
0

Any idea what its % of Total A1PI Eluted by Fraction (Based on Absorbance at 280 nm), Flowthrough is? The substance is V I F L A R: point mutation of VIFLVR, position 5 (VIFLAR)
0

Name the reported % of Total A1PI Eluted by Fraction (Based on Absorbance at 280 nm), Flowthrough value associated with the substance VIFLVR
0

I. V A F L V R: point mutation of VIFLVR, position 2 (VAFLVR)
II. VIFLVA: point mutation of VIFLVR, position 6, C-terminal Arg replaced with Ala
Between I and II , whose recorded % of Total A1PI Eluted by Fraction (Based on Absorbance at 280 nm), Flowthrough is greater? Kindly give the label for the entry you pick.
II
